- target-system: T1, TNFR1 (Homo sapiens, UniProt P19438)
- T1 chain: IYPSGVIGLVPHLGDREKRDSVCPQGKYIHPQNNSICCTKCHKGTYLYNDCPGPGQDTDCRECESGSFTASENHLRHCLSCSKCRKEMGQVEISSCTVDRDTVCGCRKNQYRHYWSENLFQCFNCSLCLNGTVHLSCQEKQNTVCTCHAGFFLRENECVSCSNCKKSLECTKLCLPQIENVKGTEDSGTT
- test-name: yeast display SC50
observation-type: apparent Kd (screen) (nM)

{"binder": "E7L (designed binder) SMEEEVLKAAKEYEKKKKEAIEKHLEKLKAKDKEAAERFLKELEEAAKEYAKDEAKTMSEEEAKRRAKKYKEKVLLSELSEEEQKEIKEAEEKLVRTILKYVEEAAK", "observation-type": "apparent Kd (screen)", "units-text": "nM", "observed-measurement": 11.4}

1. A9E (designed binder) SMEEEVEKEAKEYEKKKKEAIEKHLEKLKAKDKEAAERFLKELEEAAKEYAKDEAKTMSEEEAKRRAKKYKEKVLLSELSEEEQKEIKEAEEKLVRTILKYVEEAAK
2. A46N (designed binder) SMEEEVEKAAKEYEKKKKEAIEKHLEKLKAKDKEAAERFLKELEENAKEYAKDEAKTMSEEEAKRRAKKYKEKVLLSELSEEEQKEIKEAEEKLVRTILKYVEEAAK
Between 1 and 2 , which one has the lower reported apparent Kd (screen) value? Please respond with the label that marks your chosen entry.
1
(1: 0.446 nM, 2: 1.69 nM)

A. E83V (designed binder) SMEEEVEKAAKEYEKKKKEAIEKHLEKLKAKDKEAAERFLKELEEAAKEYAKDEAKTMSEEEAKRRAKKYKEKVLLSELSEEVQKEIKEAEEKLVRTILKYVEEAAK
B. E61S (designed binder) SMEEEVEKAAKEYEKKKKEAIEKHLEKLKAKDKEAAERFLKELEEAAKEYAKDEAKTMSESEAKRRAKKYKEKVLLSELSEEEQKEIKEAEEKLVRTILKYVEEAAK
C. A30H (designed binder) SMEEEVEKAAKEYEKKKKEAIEKHLEKLKHKDKEAAERFLKELEEAAKEYAKDEAKTMSEEEAKRRAKKYKEKVLLSELSEEEQKEIKEAEEKLVRTILKYVEEAAK
D. R96Y (designed binder) SMEEEVEKAAKEYEKKKKEAIEKHLEKLKAKDKEAAERFLKELEEAAKEYAKDEAKTMSEEEAKRRAKKYKEKVLLSELSEEEQKEIKEAEEKLVYTILKYVEEAAK
Rank order required: apparent Kd (screen), descending. Answer by writing out the labels in the requested order.
D, B, C, A
